# STUDY_TARGET: TRPV3 Y594F mutation (Homo sapiens, UniProt Q8NET8, Y594F)
# Construct: YFP or GFP
# Sequence (Q8NET8 1-790 Y594F): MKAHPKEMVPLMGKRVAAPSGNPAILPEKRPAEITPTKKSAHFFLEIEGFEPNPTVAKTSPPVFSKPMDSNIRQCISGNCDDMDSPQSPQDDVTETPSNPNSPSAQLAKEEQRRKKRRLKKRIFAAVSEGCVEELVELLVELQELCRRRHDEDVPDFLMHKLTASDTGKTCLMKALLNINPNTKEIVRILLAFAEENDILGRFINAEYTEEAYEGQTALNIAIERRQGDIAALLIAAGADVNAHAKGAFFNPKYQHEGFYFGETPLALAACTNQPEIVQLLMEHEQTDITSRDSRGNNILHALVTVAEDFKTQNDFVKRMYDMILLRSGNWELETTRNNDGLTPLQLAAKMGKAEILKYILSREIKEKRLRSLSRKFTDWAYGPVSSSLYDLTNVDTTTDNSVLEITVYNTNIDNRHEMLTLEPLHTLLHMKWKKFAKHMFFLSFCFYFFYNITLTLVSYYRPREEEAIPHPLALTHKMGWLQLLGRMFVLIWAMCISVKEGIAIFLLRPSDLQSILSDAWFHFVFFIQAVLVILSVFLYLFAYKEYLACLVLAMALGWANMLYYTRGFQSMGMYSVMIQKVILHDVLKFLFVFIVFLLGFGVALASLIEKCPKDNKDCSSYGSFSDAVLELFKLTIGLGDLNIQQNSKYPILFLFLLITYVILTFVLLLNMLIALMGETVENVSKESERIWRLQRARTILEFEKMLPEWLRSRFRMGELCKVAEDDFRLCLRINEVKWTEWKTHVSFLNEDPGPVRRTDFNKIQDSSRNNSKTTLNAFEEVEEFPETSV
# TEST: Whole-cell recording of TRPV3 Y594F mutant
# CONDITIONS: 1 mM 2-APB, ± 80 mV
MEASUREMENT_KIND: IC50 (µM)
Write the value in µM as a bare number.

Ask: Sample CCN(CCO)CCCC(C)Nc1ccnc2cc(Cl)ccc12 (stereo not shown) [HCQ, hydroxychloroquine] — what was its IC50?
Reply: 34.8
